Where these numbers come from: patent US20190307843A1

Test: Plasma and lung epithelial lining fluid (ELF) concentrations in ICR mice, 20 mg/kg IP
Type: in vivo, mouse
Settings: ICR, mouse, plasma; 20 mg/kg IP; read-out: mean plasma AUC
Starred links: 1 amine or outer side, 2 acyl side, 3 side chain; linkers in the order of their positions; H or OH if unused. Positions of bridges follow the written chain, without caps; N, C: chain ends. Non-standard residues stand in square brackets, D forms with d. Residues, ends and D or L forms follow the SMILES beside them. *: point of attachment. Orn(4R-OH,5R-OCH2CH2NMe3+) = C[N+](C)(C)CCO[C@@H](N[*:3])[C@H](O)C[C@H](N[*:1])C(=O)[*:2]; pTerphenylCO(4''-OnC5H11) = CCCCCOc1ccc(-c2ccc(-c3ccc(C(=O)*)cc3)cc2)cc1; hTyr(3S-OH,4S-OH) = N[C@H](C(=O)O)[C@H](O)[C@@H](O)c1ccc(O)cc1; Pro(3S-OH,4S-Me) = C[C@H]1CN[C@H](C(=O)O)[C@H]1O; Hyp = O=C(O)[C@@H]1C[C@@H](O)CN1
observable: AUC (µg·h/mL)
Express the result in µg·h/mL but write the number alone.

Ask | Which AUC is reported for this compound? CCCCCOc1ccc(-c2ccc(-c3ccc(C(=O)N[C@H]4C[C@@H](O)[C@@H](OCC[N+](C)(C)C)NC(=O)[C@@H]5[C@@H](O)[C@@H](C)CN5C(=O)[C@H]([C@@H](C)O)NC(=O)[C@H]([C@H](O)[C@@H](O)c5ccc(O)cc5)NC(=O)[C@@H]5C[C@@H](O)CN5C(=O)[C@H]([C@@H](C)O)NC4=O)cc3)cc2)cc1 [CD101] ({pTerphenylCO(4''-OnC5H11)}-[Orn(4R-OH,5R-OCH2CH2NMe3+)]T[Hyp][hTyr(3S-OH,4S-OH)]T[Pro(3S-OH,4S-Me)]; lactam 1-C)
Reply | 848

###

Experiment: Pharmacokinetics of CD101 after single 30 mg/kg SC (vs IV) dose in monkeys
Type: in vivo
Conditions: male, cynomolgus monkey, plasma; animal 9697, M; 30 mg/kg SC; read-out: AUCINF_obs
Experimental: Previous toxicology studies by the IV route of administration conducted in cynomolgus monkeys have shown CD101 to be safe and well tolerated at up to at least 30 mg/kg, which generates very high systemic exposures upon initial infusion of CD101 into the bloodstream. Therefore, only local tolerability (and PK) of CD101 by SC administration required evaluation. […] Plasma concentrations were then quantified by liquid chromatography with tandem mass spectrometric detection (LC-MS/MS). […]
Starred links: 1 amine or outer side, 2 acyl side, 3 side chain; linkers in the order of their positions; H or OH if unused. Positions of bridges follow the written chain, without caps; N, C: chain ends. Non-standard residues stand in square brackets, D forms with d. Residues, ends and D or L forms follow the SMILES beside them. *: point of attachment. Orn(4R-OH,5R-OCH2CH2NMe3+) = C[N+](C)(C)CCO[C@@H](N[*:3])[C@H](O)C[C@H](N[*:1])C(=O)[*:2]; pTerphenylCO(4''-OnC5H11) = CCCCCOc1ccc(-c2ccc(-c3ccc(C(=O)*)cc3)cc2)cc1; hTyr(3S-OH,4S-OH) = N[C@H](C(=O)O)[C@H](O)[C@@H](O)c1ccc(O)cc1; Pro(3S-OH,4S-Me) = C[C@H]1CN[C@H](C(=O)O)[C@H]1O; Hyp = O=C(O)[C@@H]1C[C@@H](O)CN1
observable: AUC(0-inf) (µg·h/mL)
Express the result in µg·h/mL but write the number alone.

Ask | Which AUC(0-inf) is reported for this molecule? CCCCCOc1ccc(-c2ccc(-c3ccc(C(=O)N[C@H]4C[C@@H](O)[C@@H](OCC[N+](C)(C)C)NC(=O)[C@@H]5[C@@H](O)[C@@H](C)CN5C(=O)[C@H]([C@@H](C)O)NC(=O)[C@H]([C@H](O)[C@@H](O)c5ccc(O)cc5)NC(=O)[C@@H]5C[C@@H](O)CN5C(=O)[C@H]([C@@H](C)O)NC4=O)cc3)cc2)cc1 [CD101] ({pTerphenylCO(4''-OnC5H11)}-[Orn(4R-OH,5R-OCH2CH2NMe3+)]T[Hyp][hTyr(3S-OH,4S-OH)]T[Pro(3S-OH,4S-Me)]; lactam 1-C)
Reply | 3280

###

System: Candida auris strains
Test: Candida auris antifungal susceptibility testing (CLSI M27-A3), 38 strains
Format: cell-based
Conditions: Candidozyma auris, 48 h, strain 8 VCPI 475/P/13; 48 h; read-out: MIC
Starred links: 1 amine or outer side, 2 acyl side, 3 side chain; linkers in the order of their positions; H or OH if unused. Positions of bridges follow the written chain, without caps; N, C: chain ends. Non-standard residues stand in square brackets, D forms with d. Residues, ends and D or L forms follow the SMILES beside them. *: point of attachment. Orn(4R-OH,5R-OCH2CH2NMe3+) = C[N+](C)(C)CCO[C@@H](N[*:3])[C@H](O)C[C@H](N[*:1])C(=O)[*:2]; hTyr(3S-OH,4S-OH,3'-OSO3H) = N[C@H](C(=O)O)[C@H](O)[C@@H](O)c1ccc(O)c(OS(=O)(=O)O)c1; pTerphenylCO(4''-OnC5H11) = CCCCCOc1ccc(-c2ccc(-c3ccc(C(=O)*)cc3)cc2)cc1; Orn(4R-OH,5R-OH) = O=C([C@H](C[C@@H](O)[C@@H](O)N[*:3])N[*:1])[*:2]; hTyr(3S-OH,4S-OH) = N[C@H](C(=O)O)[C@H](O)[C@@H](O)c1ccc(O)cc1; Pro(3S-OH,4S-Me) = C[C@H]1CN[C@H](C(=O)O)[C@H]1O; X1 = CCCCCOc1ccc(-c2cc(-c3ccc(C(=O)*)cc3)no2)cc1; Gln(3R-OH) = NC(=O)C[C@@H](O)[C@H](N)C(=O)O; Hyp = O=C(O)[C@@H]1C[C@@H](O)CN1
observable: MIC (µg/mL)
Express the result in µg/mL but write the number alone.

compound	tgt	result unit	MIC
CCCCCOc1ccc(-c2cc(-c3ccc(C(=O)N[C@H]4C[C@@H](O)[C@@H](O)NC(=O)[C@@H]5[C@@H](O)[C@@H](C)CN5C(=O)[C@H]([C@H](O)CC(N)=O)NC(=O)[C@H]([C@H](O)[C@@H](O)c5ccc(O)c(OS(=O)(=O)O)c5)NC(=O)[C@@H]5C[C@@H](O)CN5C(=O)[C@H]([C@@H](C)O)NC4=O)cc3)no2)cc1 [Micafungin, micafungin] (X1-[Orn(4R-OH,5R-OH)]T[Hyp][hTyr(3S-OH,4S-OH,3'-OSO3H)][Gln(3R-OH)][Pro(3S-OH,4S-Me)]; lactam 1-C)	Candida auris strains	µg/mL	0.25
CC[C@H](C)C[C@H](C)CCCCCCCCC(=O)N[C@H]1C[C@@H](O)[C@@H](NCCN)NC(=O)[C@@H]2[C@@H](O)CCN2C(=O)[C@H]([C@H](O)CCN)NC(=O)[C@H]([C@H](O)[C@@H](O)c2ccc(O)cc2)NC(=O)[C@@H]2C[C@@H](O)CN2C(=O)[C@H]([C@@H](C)O)NC1=O	Candida auris strains	µg/mL	0.25
OC(Cn1cncn1)(Cn1cncn1)c1ccc(F)cc1F	Candida auris strains	µg/mL	64

Here's the next entry for you.
Ask | Please state recorded MIC (tested on Candida auris strains) of CCCCCOc1ccc(-c2ccc(-c3ccc(C(=O)N[C@H]4C[C@@H](O)[C@@H](OCC[N+](C)(C)C)NC(=O)[C@@H]5[C@@H](O)[C@@H](C)CN5C(=O)[C@H]([C@@H](C)O)NC(=O)[C@H]([C@H](O)[C@@H](O)c5ccc(O)cc5)NC(=O)[C@@H]5C[C@@H](O)CN5C(=O)[C@H]([C@@H](C)O)NC4=O)cc3)cc2)cc1 [CD101] ({pTerphenylCO(4''-OnC5H11)}-[Orn(4R-OH,5R-OCH2CH2NMe3+)]T[Hyp][hTyr(3S-OH,4S-OH)]T[Pro(3S-OH,4S-Me)]; lactam 1-C)
Reply | 0.5

###

A collection of compounds and their measured MIC
Test system: Candida auris strains
Assay: Candida auris antifungal susceptibility testing (CLSI M27-A3), 38 strains
Format: cell-based
Settings: Candidozyma auris, 24 h, strain 14 VCPI 1130/P/13; 24 h; read-out: MIC
Starred links: 1 amine or outer side, 2 acyl side, 3 side chain; linkers in the order of their positions; H or OH if unused. Positions of bridges follow the written chain, without caps; N, C: chain ends. Non-standard residues stand in square brackets, D forms with d. Residues, ends and D or L forms follow the SMILES beside them. *: point of attachment. Orn(4R-OH,5R-OCH2CH2NMe3+) = C[N+](C)(C)CCO[C@@H](N[*:3])[C@H](O)C[C@H](N[*:1])C(=O)[*:2]; hTyr(3S-OH,4S-OH,3'-OSO3H) = N[C@H](C(=O)O)[C@H](O)[C@@H](O)c1ccc(O)c(OS(=O)(=O)O)c1; pTerphenylCO(4''-OnC5H11) = CCCCCOc1ccc(-c2ccc(-c3ccc(C(=O)*)cc3)cc2)cc1; Orn(4R-OH,5R-OH) = O=C([C@H](C[C@@H](O)[C@@H](O)N[*:3])N[*:1])[*:2]; hTyr(3S-OH,4S-OH) = N[C@H](C(=O)O)[C@H](O)[C@@H](O)c1ccc(O)cc1; Pro(3S-OH,4S-Me) = C[C@H]1CN[C@H](C(=O)O)[C@H]1O; X1 = CCCCCOc1ccc(-c2cc(-c3ccc(C(=O)*)cc3)no2)cc1; Gln(3R-OH) = NC(=O)C[C@@H](O)[C@H](N)C(=O)O; Hyp = O=C(O)[C@@H]1C[C@@H](O)CN1
Express the result in µg/mL but write the number alone.

Guide cases for MIC, answers given:
compound	value
CCCCCOc1ccc(-c2ccc(-c3ccc(C(=O)N[C@H]4C[C@@H](O)[C@@H](OCC[N+](C)(C)C)NC(=O)[C@@H]5[C@@H](O)[C@@H](C)CN5C(=O)[C@H]([C@@H](C)O)NC(=O)[C@H]([C@H](O)[C@@H](O)c5ccc(O)cc5)NC(=O)[C@@H]5C[C@@H](O)CN5C(=O)[C@H]([C@@H](C)O)NC4=O)cc3)cc2)cc1 [CD101] ({pTerphenylCO(4''-OnC5H11)}-[Orn(4R-OH,5R-OCH2CH2NMe3+)]T[Hyp][hTyr(3S-OH,4S-OH)]T[Pro(3S-OH,4S-Me)]; lactam 1-C)	0.5
CCCCCOc1ccc(-c2cc(-c3ccc(C(=O)N[C@H]4C[C@@H](O)[C@@H](O)NC(=O)[C@@H]5[C@@H](O)[C@@H](C)CN5C(=O)[C@H]([C@H](O)CC(N)=O)NC(=O)[C@H]([C@H](O)[C@@H](O)c5ccc(O)c(OS(=O)(=O)O)c5)NC(=O)[C@@H]5C[C@@H](O)CN5C(=O)[C@H]([C@@H](C)O)NC4=O)cc3)no2)cc1 [Micafungin, micafungin] (X1-[Orn(4R-OH,5R-OH)]T[Hyp][hTyr(3S-OH,4S-OH,3'-OSO3H)][Gln(3R-OH)][Pro(3S-OH,4S-Me)]; lactam 1-C)	0.125

Here's the next entry for you.
Ask | Which MIC is reported for this compound? OC(Cn1cncn1)(Cn1cncn1)c1ccc(F)cc1F [fluconazole]
Reply | 32
